Ref: patent US9365506B2

- study-target: UniProt:O60603
- Sequence (O60603 21-784): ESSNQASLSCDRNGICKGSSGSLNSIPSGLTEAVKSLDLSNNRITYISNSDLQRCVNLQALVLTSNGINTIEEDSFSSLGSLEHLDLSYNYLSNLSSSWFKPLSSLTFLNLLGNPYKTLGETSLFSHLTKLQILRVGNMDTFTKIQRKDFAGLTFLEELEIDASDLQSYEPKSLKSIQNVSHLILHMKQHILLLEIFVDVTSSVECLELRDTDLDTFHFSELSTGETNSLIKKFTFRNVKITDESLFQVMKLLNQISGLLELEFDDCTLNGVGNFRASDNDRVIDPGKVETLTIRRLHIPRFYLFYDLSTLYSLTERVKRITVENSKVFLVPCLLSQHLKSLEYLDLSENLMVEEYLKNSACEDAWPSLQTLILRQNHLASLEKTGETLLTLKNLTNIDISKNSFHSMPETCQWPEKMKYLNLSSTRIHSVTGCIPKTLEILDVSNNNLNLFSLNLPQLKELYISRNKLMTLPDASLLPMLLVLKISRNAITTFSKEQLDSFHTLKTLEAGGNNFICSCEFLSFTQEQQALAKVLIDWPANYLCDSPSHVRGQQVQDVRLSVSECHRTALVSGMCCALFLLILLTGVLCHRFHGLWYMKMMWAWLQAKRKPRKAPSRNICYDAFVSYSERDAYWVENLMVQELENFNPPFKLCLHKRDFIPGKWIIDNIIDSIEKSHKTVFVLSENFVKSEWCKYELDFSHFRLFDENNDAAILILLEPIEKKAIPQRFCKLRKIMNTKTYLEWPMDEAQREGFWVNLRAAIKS
- assay: Reporter gene assay: HEK 293 cells stably transfected with human TLR2 and NF-kB-driven luciferase reporter
- experimental-setup: Hek-TLR2 μM (EC50), HEK 293 stably transfected with human TLR2 and pNifty-Luciferase; 7 hours incubation; concentration giving 50% of maximal signal
readout-label: EC50 (nM)
Report only the number, with the unit nM understood.

Problem: // returns reported EC50 for input CCCCCCCCCCCCOC[C@H](CSC[C@H](N)C(=O)NCCOCCOCCOCCOCCP(=O)(O)O)NC(=O)CCCCCCCCCCC
Solution: 1860

Problem: // returns reported EC50 for input CCCCCCCCCCCC(=O)OC[C@H](CSC[C@H](N)C(=O)NCCOCCP(=O)(O)O)OC(=O)CCCCCCCCCCC
Solution: 119

Problem: // returns reported EC50 for input CCCCCCCC(=O)OC[C@H](CSC[C@H](N)C(=O)NCCOCCOCCOCCP(=O)(O)O)OC(=O)CCCCCCC
Solution: 3040

Problem: // returns reported EC50 for input CCCCCCCCCCCC(=O)OC[C@H](CSC[C@H](N)C(=O)NCCCCCCCCCC(=O)O)OC(=O)CCCCCCCCCCC
Solution: 4400

Problem: // returns reported EC50 for input CCCCCCCCCCCCCC(=O)OC[C@H](CSC[C@H](N)C(=O)NCCOCCOCCOCCP(=O)(O)O)OC(=O)CCCCCCCCCCCCC
Solution: 6.3

---
Problem: // returns reported EC50 for input CCCCCCCCCCCC(=O)OC[C@H](CSC[C@H](N)C(=O)N[C@@H](CC)COCC(=O)O)OC(=O)CCCCCCCCCCC
Solution: 6500

Problem: // returns reported EC50 for input CCCCCCCCCCCC(=O)OC[C@H](CSC[C@H](N)C(=O)NC(Cc1ccccc1)c1ccccc1)OC(=O)CCCCCCCCCCC (some centres unmarked)
Solution: 68

Problem: // returns reported EC50 for input CCCCCCCCCCCC(=O)OC[C@H](CSC[C@H](N)C(=O)NC(C)CCC(C)C)OC(=O)CCCCCCCCCCC (some centres unmarked)
Solution: 190

Problem: // returns reported EC50 for input CCCCCCCCCCCC(=O)OC[C@H](CSC[C@H](N)C(=O)NCCOCCOCCN)OC(=O)CCCCCCCCCCC
Solution: 1290

Problem: // returns reported EC50 for input CCCCCCCCCCCCCCCC(=O)N[C@@H](CSC[C@@H](COC(=O)CCCCCCCCCCC)OC(=O)CCCCCCCCCCC)C(=O)NCCCOCCOCCOCCCNC(=O)CCC1OCCO1
Solution: 96
